- Experimental System: Glycogen synthase kinase-3 beta (Homo sapiens)
- Sequence (P49841 whole entry): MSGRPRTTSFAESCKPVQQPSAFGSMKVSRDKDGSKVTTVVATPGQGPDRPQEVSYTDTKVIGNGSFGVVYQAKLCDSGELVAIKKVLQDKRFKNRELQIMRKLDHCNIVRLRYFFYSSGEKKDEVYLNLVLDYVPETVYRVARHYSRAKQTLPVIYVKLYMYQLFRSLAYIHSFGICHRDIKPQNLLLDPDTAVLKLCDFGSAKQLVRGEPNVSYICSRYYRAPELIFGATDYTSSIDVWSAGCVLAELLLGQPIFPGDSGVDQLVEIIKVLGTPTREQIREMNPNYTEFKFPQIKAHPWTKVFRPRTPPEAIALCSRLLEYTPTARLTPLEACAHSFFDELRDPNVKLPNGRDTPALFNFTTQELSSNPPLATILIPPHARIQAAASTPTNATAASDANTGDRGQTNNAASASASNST
- Protocol Text: concentration-response blocking of human GSK3B – biochemical, luminescence, cell-free homogeneous, retest, dose response (AID 434954)
Give pEC50 for every item shown.
// scale note: pEC50 = -log10(conc_M); give the bare number

(Q) Which measured pEC50 value corresponds to COc1ccc(-n2nc3c(N)n[nH]c3cc2=O)cc1 ?
(A) 4.85

(Q) Which measured pEC50 value corresponds to CCN(CC)Cc1c(C(=O)N/N=C/c2ccncc2)nnn1-c1nonc1N ?
(A) 6.75

(Q) Which measured pEC50 value corresponds to O=C(Nc1ccc(O)c2c(=O)cc(-c3ccccc3Cl)oc12)c1cccs1 ?
(A) 4.78

---

- Experimental System: Glycogen synthase kinase-3 beta (Homo sapiens)
- Protocol Text: concentration-response blocking of human GSK3B – biochemical, luminescence, cell-free homogeneous, retest, dose response (AID 434954)
pEC50: −log10 of the molar value.
Test Readout: pEC50

(Q) Which measured pEC50 value corresponds to COc1cc(OC)c2c(-c3ccccc3)cc(=O)oc2c1 ?
(A) < 3.52

(Q) Which measured pEC50 value corresponds to CC(OC(=O)c1nsc(Cl)c1Cl)C(=O)NCc1ccco1 (stereo unspecified) ?
(A) < 4.00

(Q) Which measured pEC50 value corresponds to CSc1nsc(CC=Nc2ccc(Cl)cc2)c1C#N ?
(A) < 3.52

(Q) Which measured pEC50 value corresponds to O=C(CN1C(=O)CCC1=O)Nc1cccc(NC(=O)CN2C(=O)CCC2=O)c1 ?
(A) < 3.52

(Q) Which measured pEC50 value corresponds to Nc1nc(NCCCN2CCOCC2)nc(Nc2cccc(Cl)c2)c1[N+](=O)[O-] ?
(A) 5.37

(Q) Which measured pEC50 value corresponds to Cc1ccc(-c2nn(-c3ccccc3)cc2C=NNS(=O)(=O)c2ccccc2)cc1 ?
(A) < 3.52

(Q) Which measured pEC50 value corresponds to Nc1nc(Nc2ccccc2)nc(N2CCOCC2)c1[N+](=O)[O-] ?
(A) 4.69

(Q) Which measured pEC50 value corresponds to CCCC(NC(=O)Cc1c(C)c2c(cc(C)c3c(C)coc32)oc1=O)C(=O)O (stereo unspecified) ?
(A) < 3.52

(Q) Which measured pEC50 value corresponds to CN(C)c1nc(-c2cccnc2)nc(-c2ccccc2)c1C#N ?
(A) < 3.52

(Q) Which measured pEC50 value corresponds to CC(C)(C)NC1=NN=C(c2ccc(Cl)cc2)CS1 ?
(A) < 3.52

(Q) Which measured pEC50 value corresponds to O=C(Nc1ccccn1)Nc1ccccc1Cl ?
(A) < 3.52

(Q) Which measured pEC50 value corresponds to COCCCNc1nc(N)c([N+](=O)[O-])c(NCC2CCCO2)n1 (stereo unspecified) ?
(A) 5.41

(Q) Which measured pEC50 value corresponds to NC(=O)c1c(NC(=O)CCCn2cnc([N+](=O)[O-])n2)sc2c1CCCC2 ?
(A) 3.98

(Q) Which measured pEC50 value corresponds to COc1ccc(C(=O)c2sc(Nc3ccccc3F)nc2N)cc1 ?
(A) 5.83

(Q) Which measured pEC50 value corresponds to COC(=O)c1nnn(-c2nonc2N)c1CSc1nnc(N)s1 ?
(A) 4.40

(Q) Which measured pEC50 value corresponds to Cc1nnc(SCC(=O)Nc2ccc(Cl)cn2)[nH]c1=O ?
(A) 4.43

(Q) Which measured pEC50 value corresponds to CCNc1nc(N)c(C(=O)c2ccc(Cl)s2)s1 ?
(A) 6.76

(Q) Which measured pEC50 value corresponds to COc1cc([CH+][N-]NC(=O)c2ccncc2)ccc1Oc1ccc([N+](=O)[O-])cn1 ?
(A) < 3.52

(Q) Which measured pEC50 value corresponds to CN1CCN(CCCNC(=O)Nc2ccc([N+](=O)[O-])cc2)CC1 ?
(A) < 3.52

(Q) Which measured pEC50 value corresponds to Cc1ccc(C(=O)Nc2ncc([N+](=O)[O-])s2)cc1 ?
(A) < 3.52

(Q) Which measured pEC50 value corresponds to CCn1c(SCC(=O)NNC(=O)c2ccc(C)cc2)nnc1C1CC1 ?
(A) < 3.52

---

- Experimental System: Glycogen synthase kinase-3 beta (Homo sapiens)
- Protocol Text: concentration-response blocking of human GSK3B – biochemical, luminescence, cell-free homogeneous, retest, dose response (AID 434954)
Give EC50 for every item shown.

(Q) Which measured EC50 value corresponds to Cc1ccccc1CSc1nnc([C@@H]2CCCN2)o1 [MLS000333752] ?
(A) > 300 µM

(Q) Which measured EC50 value corresponds to Cc1cc(OC(C)C)c2c(-c3ccccc3)cc(=O)oc2c1 [SMR000141385] ?
(A) > 300 µM

(Q) Which measured EC50 value corresponds to Nc1nonc1-n1nnc(C(=O)NN=Cc2ccccc2)c1CN1CCc2ccccc21 ?
(A) 3.62 µM

(Q) Which measured EC50 value corresponds to COc1cc([CH+][N-]NC(=O)c2ccc(O)cc2)ccc1Oc1ccc([N+](=O)[O-])cn1 ?
(A) > 300 µM

(Q) Which measured EC50 value corresponds to Cc1nnc2n(-c3ccccc3)c(=O)c3c4c(sc3n12)CCCC4 [MLS000071277] ?
(A) > 300 µM

(Q) Which measured EC50 value corresponds to Cc1cccc(Nc2nc(NCC3CCCO3)nc(N)c2[N+](=O)[O-])c1 (stereo not given) ?
(A) 4.11 µM

(Q) Which measured EC50 value corresponds to CC1=Nc2ncnn2C(c2c[nH]c3ccccc23)C1C(=O)OC(C)C (stereo not given) ?
(A) 1.81 µM

(Q) Which measured EC50 value corresponds to Cc1ccnc(NC(=O)c2cccc([N+](=O)[O-])c2C)c1 ?
(A) > 300 µM

(Q) Which measured EC50 value corresponds to CN1CCc2c(sc3c2c(=O)n(-c2cccc(Cl)c2)c2nncn32)C1 [MLS000084041] ?
(A) > 300 µM

(Q) Which measured EC50 value corresponds to CC1(C)CC2CC(C)(CN2S(=O)(=O)c2ccc(C(=O)Nc3ccc(Cl)c(S(=O)(=O)N4CCOCC4)c3)cc2)C1 (stereo not given) ?
(A) > 300 µM

---

- Experimental System: Glycogen synthase kinase-3 beta (Homo sapiens)
- Protocol Text: concentration-response blocking of human GSK3B – biochemical, luminescence, cell-free homogeneous, retest, dose response (AID 434954)
pEC50: −log10 of the molar value.
Give pEC50 for every item shown.

(Q) Which measured pEC50 value corresponds to NC(=O)c1c(NC(=O)CN2CCCC2)sc2c1CCCC2 ?
(A) < 3.52

(Q) Which measured pEC50 value corresponds to CN(CCO)S(=O)(=O)c1ccc2c(c1)C(=NNC(N)=O)c1cc(S(=O)(=O)N(C)CCO)ccc1-2 ?
(A) < 3.52

(Q) Which measured pEC50 value corresponds to O=C(CC1NCCNC1=O)Nc1cc(Cl)cc(Cl)c1 (configuration not stated) ?
(A) < 3.52

(Q) Which measured pEC50 value corresponds to CN1CCN(c2nc(-c3ccccc3)nc(-c3ccccc3)c2C#N)CC1 ?
(A) < 3.52

(Q) Which measured pEC50 value corresponds to CNC(=O)NC(=O)CSc1nc(-c2cccs2)c(C#N)c(=O)[nH]1 ?
(A) 5.69

(Q) Which measured pEC50 value corresponds to O=c1cc(-c2ccccc2Cl)oc2c(Br)ccc(O)c12 ?
(A) < 3.52

(Q) Which measured pEC50 value corresponds to COc1cccc(N(C(=O)C[S+]([O-])CC(=O)Nc2ccc(F)cc2)C(C(=O)NC2CCCCC2)c2cccs2)c1 (configuration not stated) ?
(A) < 3.52

(Q) Which measured pEC50 value corresponds to CN(C)CCCNc1nc(N)c([N+](=O)[O-])c(NC2CCCCC2)n1 ?
(A) 5.50

(Q) Which measured pEC50 value corresponds to CCn1cc(CN2CCC(n3nccc3NC(=O)CCCc3ccccc3)CC2)cn1 ?
(A) < 3.52

(Q) Which measured pEC50 value corresponds to COC(=O)c1cn(NC(=O)c2cccnc2)c(=O)c2ccccc12 ?
(A) < 3.52

(Q) Which measured pEC50 value corresponds to CCOC(=O)c1c(C)oc2c(CC(=O)c3ccccc3)c(Cl)c(O)c(O)c12 ?
(A) < 3.52

(Q) Which measured pEC50 value corresponds to O=C(Nc1ccccn1)c1ccc(C(=O)Nc2ccccn2)cc1 ?
(A) < 3.52

(Q) Which measured pEC50 value corresponds to O=C(O)c1ccccc1NC(=O)c1ccccc1Nc1ccccc1 ?
(A) < 3.52

(Q) Which measured pEC50 value corresponds to CCC(C)Nc1nc(N)c([N+](=O)[O-])c(NCc2ccccc2)n1 (configuration not stated) ?
(A) 5.02

(Q) Which measured pEC50 value corresponds to CCOC(=O)C1C(C)=Nc2ncnn2C1c1cc(OC)ccc1OC (configuration not stated) ?
(A) < 3.52

(Q) Which measured pEC50 value corresponds to O=C(OCCCOC(=O)c1cc[n+]([O-])cc1)c1cc[n+]([O-])cc1 ?
(A) < 3.52

(Q) Which measured pEC50 value corresponds to Cc1ccnc(NC(=O)Cn2ccc([N+](=O)[O-])n2)c1 ?
(A) < 3.52

(Q) Which measured pEC50 value corresponds to CCCCOC(=O)C1C(C)=Nc2ncnn2C1c1cccc(OC)c1OC (configuration not stated) ?
(A) 5.37

(Q) Which measured pEC50 value corresponds to COCCN(CC(=O)NCc1ccc(OC)cc1)C(=O)CCC(=O)Nc1nccs1 ?
(A) < 3.52

(Q) Which measured pEC50 value corresponds to CN(C)c1ccc(/N=N/c2ccc(S(N)(=O)=O)cc2)cc1 ?
(A) < 3.52

(Q) Which measured pEC50 value corresponds to CCCCCCCCCCCCC(=O)CCCCC(=O)O ?
(A) < 3.52

(Q) Which measured pEC50 value corresponds to COc1ccccc1Nc1nc(NCC(C)C)nc(N)c1[N+](=O)[O-] ?
(A) 6.05

(Q) Which measured pEC50 value corresponds to OCCCNc1nccc(-c2cc(Nc3cccc(Cl)c3)ncn2)n1 ?
(A) 7.11

(Q) Which measured pEC50 value corresponds to O=C1Nc2ccc([N+](=O)[O-])cc2C1=NNC1CS(=O)(=O)CC1O (configuration not stated) ?
(A) 4.64

(Q) Which measured pEC50 value corresponds to CCc1ccc(CN=Nc2ncnc3nc[nH]c23)cc1 ?
(A) 4.58

(Q) Which measured pEC50 value corresponds to COc1cccc(/C=C2/Sc3ccc(C(=O)NCCCN4CCCC4)cc3NC2=O)c1 ?
(A) 5.55

(Q) Which measured pEC50 value corresponds to Cc1ccc(C(=O)NN=Cc2ccc(-c3ccc(Cl)c(Cl)c3)o2)cn1 ?
(A) < 3.52

(Q) Which measured pEC50 value corresponds to O=C(CCCC1=Nc2ccccc2S(=O)(=O)N1)Nc1ccccc1 ?
(A) < 3.52

(Q) Which measured pEC50 value corresponds to COc1nc(N(C)C)nc(N(C#N)CCOC(C)=O)n1 ?
(A) < 3.52

(Q) Which measured pEC50 value corresponds to COc1ccc(CN(CC(=O)NCCc2ccccc2)C(=O)CCC(=O)Nc2ccccn2)cc1 ?
(A) < 3.52

(Q) Which measured pEC50 value corresponds to Cc1nnc(SCC(=O)N2CCC(C(=O)Nc3nccs3)CC2)n1Cc1ccccc1 ?
(A) 4.44

(Q) Which measured pEC50 value corresponds to O=C(Oc1ccc(F)c(F)c1)c1ccc2c(=O)n3c(nc2c1)CCC3 ?
(A) < 3.52

(Q) Which measured pEC50 value corresponds to Cc1cccc(/C=C2/Sc3ccc(C(=O)NCCN4CCCC4)cc3NC2=O)c1 ?
(A) 5.20

(Q) Which measured pEC50 value corresponds to O=[N+]([O-])c1cc([N+](=O)[O-])c(N2CCCCCC2)cc1NCCO ?
(A) 5.25

(Q) Which measured pEC50 value corresponds to O=C(O)c1ccccc1C(=O)Nc1nccs1 ?
(A) < 3.52

(Q) Which measured pEC50 value corresponds to CCOc1cc(C)cc2oc(=O)cc(-c3ccccc3)c12 ?
(A) < 3.52

(Q) Which measured pEC50 value corresponds to CCc1ccc(C2CC(c3ccc(C)cc3)Nc3nc(N)nn32)cc1 (configuration not stated) ?
(A) < 3.52

(Q) Which measured pEC50 value corresponds to CN1CCc2c(sc(NC(=O)Cc3ccc(F)cc3)c2C(N)=O)C1 ?
(A) < 3.52

(Q) Which measured pEC50 value corresponds to COc1ccc(C(=O)c2ccsc2N)cc1 ?
(A) < 3.52

(Q) Which measured pEC50 value corresponds to COc1ccc(-c2nn(-c3ccccc3)cc2C=NNC(N)=S)cc1OC ?
(A) < 3.52

(Q) Which measured pEC50 value corresponds to O=C(CSCCc1ccccn1)Nc1ccc(Br)cn1 ?
(A) 4.75

(Q) Which measured pEC50 value corresponds to COc1ccc(NC(=O)Nc2ccccn2)cc1OC ?
(A) < 3.52
